TEST_DESCRIPTION: Cytotoxicity against rat NRK-49F cells assessed as cell viability at 10 uM incubated for 72 hrs by MTT assay
Type: cell-based
TEST_SETTINGS: read-out: Activity
Quick reference: viability at 72 h, 10 µM of the listed items.
Provide the reading as a plain figure in %.

>>> print(df.to_string())
                            chemical_smiles     experimental_endpoint  quantitative_readout
0  CN1CCN(CC(=O)Nc2ccc(Nc3cc(=O)oc4ccc([N+](=O)[O-])cc34)cc2)CC1  viability at 72 h, 10 µM                  32.1
1  CN1CCN(CC(=O)Nc2ccc(Nc3cc(=O)oc4ccccc34)cc2)CC1  viability at 72 h, 10 µM                  87.5
2  O=C(CN1CCCCC1)Nc1ccc(Nc2cc(=O)oc3ccccc23)cc1  viability at 72 h, 10 µM                  43.6
3  C[C@H]1CCCN(CC(=O)Nc2ccc(Nc3cc(=O)oc4ccccc34)cc2F)C1  viability at 72 h, 10 µM                  88.5
4  COc1ccc2c(Oc3ccc(NC(=O)CN4CCOCC4)cc3)cc(=O)oc2c1  viability at 72 h, 10 µM                  96.5
5  COc1ccc2c(Oc3ccc(NC(=O)CN4CCN(C)CC4)cc3)cc(=O)oc2c1  viability at 72 h, 10 µM                  95.6
6  COc1ccc2c(Nc3ccc(NC(=O)CN4CCC[C@H](C)C4)cc3)cc(=O)oc2c1  viability at 72 h, 10 µM                  90.1
7  COc1ccc2c(Nc3ccc(NC(=O)CN4CCN(C)CC4)cc3)cc(=O)oc2c1  viability at 72 h, 10 µM                  87.2
8  C[C@H]1CCCN(CC(=O)Nc2ccc(Nc3cc(=O)oc4ccc([N+](=O)[O-])cc34)cc2)C1  viability at 72 h, 10 µM                  17.8
9  CN1CCN(CC(=O)Nc2ccc(Oc3cc(=O)oc4ccccc34)cc2)CC1  viability at 72 h, 10 µM                  83.6

Which viability at 72 h, 10 µM reading was recorded for the compound COC(=O)c1ccc2c(c1)NC(=O)/C2=C(\Nc1ccc(N(C)C(=O)CN2CCN(C)CC2)cc1)c1ccccc1 ?
40

// query: COc1ccc2c(Oc3ccc(NC(=O)CN4CCC[C@H](C)C4)cc3)cc(=O)oc2c1
90.5
